experiment notes: Moisture absorption measurement in a Constant Temperature & Humidity Chamber
Type: physicochemical
condition set: 25° C., relative humidity 75%, after 5 days; Table 4, Examples 1-8
property label: Moisture absorption rate, % (%)

compound	property label	units text	meas value
CC(=O)NC1C(O)[C@H](O)C(CO)O[C@H]1OC1C(O)[C@H](O[C@@H]2C(CO)OC(O)C(O)C2O)OC(CO)[C@@H]1O (single isomer, unassigned) [Crystalline form B in Example 4, Lacto-N-triose II]	Moisture absorption rate, %	%	13.81
CC(=O)NC1C(O)[C@H](O)C(CO)O[C@H]1OC1C(O)[C@H](O[C@@H]2C(CO)OC(O)C(O)C2O)OC(CO)[C@@H]1O (single isomer, unassigned) [Crystalline form B in Example 1, Lacto-N-triose II]	Moisture absorption rate, %	%	14.02
CC(=O)NC1C(O)[C@H](O)C(CO)O[C@H]1OC1C(O)[C@H](O[C@@H]2C(CO)OC(O)C(O)C2O)OC(CO)[C@@H]1O (single isomer, unassigned) [Crystalline form B in Example 3, Lacto-N-triose II]	Moisture absorption rate, %	%	13.57
CC(=O)NC1C(O)[C@H](O)C(CO)O[C@H]1OC1C(O)[C@H](O[C@@H]2C(CO)OC(O)C(O)C2O)OC(CO)[C@@H]1O (single isomer, unassigned) [Crystalline form B in Example 2, Lacto-N-triose II]	Moisture absorption rate, %	%	14.36

====

experiment notes: Stability study in a Constant Temperature & Humidity Chamber (LNTII content by HPLC and appearance)
Type: physicochemical
condition set: LNTII content by HPLC, Day 0
Protocol: In this invention, high-performance liquid chromatography (HPLC) is used to detect the content of LNTII under the following detection conditions: Chromatographic column: Asahipak NH2P-504E 4.6 mm×250 mm, 5 μm, mobile phase: acetonitrile: water=65:35, flow rate: 1 mL/min, detector: UV-VIS detector, wavelength: 210 nm, column temperature: 30° C., sample volume: 10 μL, and the running time of 30 min. […]
property label: Content, % (Day 0) (%)

compound	Content, % (Day 0) / %
CC(=O)NC1C(O)[C@H](O)C(CO)O[C@H]1OC1C(O)[C@H](O[C@@H]2C(CO)OC(O)C(O)C2O)OC(CO)[C@@H]1O (single isomer, unassigned) [Crystalline form B in Example 5, Lacto-N-triose II]	93.4
CC(=O)NC1C(O)[C@H](O)C(CO)O[C@H]1OC1C(O)[C@H](O[C@@H]2C(CO)OC(O)C(O)C2O)OC(CO)[C@@H]1O (single isomer, unassigned) [Crystalline form B in Example 8, Lacto-N-triose II]	96.5
CC(=O)NC1C(O)[C@H](O)C(CO)O[C@H]1OC1C(O)[C@H](O[C@@H]2C(CO)OC(O)C(O)C2O)OC(CO)[C@@H]1O (single isomer, unassigned) [Crystalline form B in Example 1, Lacto-N-triose II]	96.8
CC(=O)NC1C(O)[C@H](O)C(CO)O[C@H]1OC1C(O)[C@H](O[C@@H]2C(CO)OC(O)C(O)C2O)OC(CO)[C@@H]1O (single isomer, unassigned) [Crystalline form B in Example 6, Lacto-N-triose II]	92.4
CC(=O)NC1C(O)[C@H](O)C(CO)O[C@H]1OC1C(O)[C@H](O[C@@H]2C(CO)OC(O)C(O)C2O)OC(CO)[C@@H]1O (single isomer, unassigned) [Crystalline form B in Example 2, Lacto-N-triose II]	96.5
